Tested on: K4 kissing-loop RNA reporter;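 note: bound reporter read as fluorescence of individual clusters on recovered sequencing chips by microscopy, with normalized cluster intensities fitted with a binding model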
EXPERIMENTAL DETAILS: apparent KD of K4 kissing-loop reporter; higher = weaker reporter binding
REPORTED CONDITIONS: Eterna round: R107; input ligand: FMN 200 uM
Listing: apparent KD of K4 kissing-loop reporter of selected sequences
MEASURED METRIC: apparent KD of K4 kissing-loop reporter (µM)

GGAUAGGAUAGAGGAUAUGGGCUAGGCAAGAAUAACUUGUCUAGCAAAUCCAUGAGGAGUGAUGUUCCAGAAGGCUGUCCUAUCG [FmnBX 1 U9] : 0.901
UGGAGUUGACGAAAAGUCAACUCCUGAGAUACCAGUGACGAAAGUCACCCUUGGCAGCUCACUGCCAGUGAUGUUGGAACUAAAG [#02 K4 Theophylline A Same State] : 0.308
GGCACGGUGACGCGGCUGCCGUGCGCUUGGGAGGAUAUGUUUCGUGACAGAAGGCCCAGUGAUGUUGGGUCUGUUCAAAAGGACU [Edmatianri] : 0.339
